biological target: castor bean PLD α (Ricinus communis, UniProt Q41142); test: biochemical; type: biochemical; details: read-out: IC50 Values
Sequence (Q41142 31-808 limits assumed): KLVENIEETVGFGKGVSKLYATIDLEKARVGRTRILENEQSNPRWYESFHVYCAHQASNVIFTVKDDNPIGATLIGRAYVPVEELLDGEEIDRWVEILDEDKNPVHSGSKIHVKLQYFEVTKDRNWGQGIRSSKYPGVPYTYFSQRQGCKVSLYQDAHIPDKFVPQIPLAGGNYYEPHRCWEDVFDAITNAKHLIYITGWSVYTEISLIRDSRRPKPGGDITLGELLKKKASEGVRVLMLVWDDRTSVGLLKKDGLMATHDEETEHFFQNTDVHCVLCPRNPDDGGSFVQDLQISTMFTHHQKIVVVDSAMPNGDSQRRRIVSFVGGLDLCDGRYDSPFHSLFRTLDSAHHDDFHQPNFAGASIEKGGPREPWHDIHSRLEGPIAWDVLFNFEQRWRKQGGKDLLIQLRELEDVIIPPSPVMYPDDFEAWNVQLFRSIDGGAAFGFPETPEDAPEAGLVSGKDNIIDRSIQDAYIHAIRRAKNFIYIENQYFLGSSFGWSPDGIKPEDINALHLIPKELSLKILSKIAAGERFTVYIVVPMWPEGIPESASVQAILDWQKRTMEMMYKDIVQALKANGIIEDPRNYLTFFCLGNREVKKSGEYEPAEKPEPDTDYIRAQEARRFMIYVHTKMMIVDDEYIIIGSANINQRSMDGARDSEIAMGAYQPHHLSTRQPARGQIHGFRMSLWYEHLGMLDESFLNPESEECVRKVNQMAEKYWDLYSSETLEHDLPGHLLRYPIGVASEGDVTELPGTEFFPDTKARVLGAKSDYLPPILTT
pIC50: −log10 of the molar value.
quantity.name: pIC50

smi: CC/C=C\C/C=C\C/C=C\CCCCCCCC(=O)NCCO
recorded.result: 4.10
